studySystem: AChE (Electrophorus electricus)
Construct: purchased Sigma-Aldrich (St. Louis, MO, USA)
Sequence (O42275 24-633): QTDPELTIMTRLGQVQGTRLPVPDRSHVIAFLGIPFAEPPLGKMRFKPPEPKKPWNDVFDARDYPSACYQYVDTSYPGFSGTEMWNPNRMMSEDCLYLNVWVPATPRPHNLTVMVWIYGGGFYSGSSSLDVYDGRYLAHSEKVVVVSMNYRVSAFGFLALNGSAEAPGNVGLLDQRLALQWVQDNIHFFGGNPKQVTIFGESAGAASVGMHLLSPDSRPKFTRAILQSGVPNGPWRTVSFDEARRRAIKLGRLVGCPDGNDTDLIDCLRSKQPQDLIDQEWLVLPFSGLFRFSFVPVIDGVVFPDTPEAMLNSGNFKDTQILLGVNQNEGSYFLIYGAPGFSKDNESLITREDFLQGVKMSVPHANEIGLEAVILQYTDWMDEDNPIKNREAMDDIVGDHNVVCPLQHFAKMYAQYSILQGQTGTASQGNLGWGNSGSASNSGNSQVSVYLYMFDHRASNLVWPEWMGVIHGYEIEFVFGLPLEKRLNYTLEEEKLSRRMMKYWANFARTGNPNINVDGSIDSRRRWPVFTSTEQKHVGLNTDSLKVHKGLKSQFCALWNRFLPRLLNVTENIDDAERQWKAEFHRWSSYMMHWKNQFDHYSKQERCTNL
testMethodNotes: Enzyme kinetic analysis against AChE
Assay type: biochemical
measurementContext: Dixon and Cornish–Bowden plots; read-out: inhibition constant Ki,c (competitive component)
pKi: −log10 of the molar value.
measure: pKi

molecule | number
N=C(N)NCCCCNC(=O)c1ccc(O)cc1 [Compound 1, N-(4-guanidinobutyl)-4-hydroxybenzamide] | 5.58
